Biological target: human 11β-HSD1 (Homo sapiens, UniProt P28845)
Construct: The obtained PCR products of about 0.9 kbp, 1.2 kbp, and 0.9 kbp were subcloned into an expression vector pcDNA3.1+/Zeo; expressed in transfected cells
Sequence (P28845 whole entry): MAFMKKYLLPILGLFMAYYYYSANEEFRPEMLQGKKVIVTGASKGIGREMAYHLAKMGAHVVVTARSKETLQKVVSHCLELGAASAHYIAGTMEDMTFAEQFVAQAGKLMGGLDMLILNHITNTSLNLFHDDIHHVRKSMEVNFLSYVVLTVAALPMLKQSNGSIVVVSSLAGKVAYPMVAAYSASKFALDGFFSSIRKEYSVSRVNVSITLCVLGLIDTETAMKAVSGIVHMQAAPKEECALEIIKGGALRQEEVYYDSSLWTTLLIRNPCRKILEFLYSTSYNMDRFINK
Test: Enzyme inhibitory activity, human 11β-HSD1 (lysate of stably expressing HEK293 cells, cortisol by competitive ELISA)
Format: biochemical
Conditions: Table 2; human 11β-HSD1, cell lysate, 37° C. for 1 hour; read-out: h HSD1 in vitro assay (IC50 uM)
Please go through the items and note down their IC50.
Your answer is read as µM, so omit the unit and give the number.

Given the molecule CC1(C)C(=O)N(C2C3CC4CC(C3)CC2C4)N1Cc1cc(F)ccc1F (stereo not drawn) , write its reported IC50.
0.35

Given the molecule "CC1(C)C(=O)N([C@H]2C3CC4CC2C[C@](O)(C4)C3)N1Cc1ccccc1Cl" , write its reported IC50.
0.5

Given the molecule CC1(C)C(=O)N(C2C3CC4CC(C3)CC2C4)N1Cc1cc(Cl)ccc1Cl (stereo not drawn) , write its reported IC50.
0.044

Given the molecule CC1(C)C(=O)N(C2C3CC4CC(C3)CC2C4)N1Cc1cccc(F)c1 (stereo not drawn) , write its reported IC50.
0.64

Given the molecule CC1(C)C(=O)N(C2C3CC4CC2CC(C(N)=O)(C4)C3)N1c1cccc(Cl)c1Cl (stereo not drawn) , write its reported IC50.
0.007

Given the molecule CC1(C)C(=O)N(C2C3CC4CC(C3)CC2C4)N1Cc1c(F)cccc1Cl (stereo not drawn) , write its reported IC50.
0.23

Given the molecule "CC1(C)C(=O)N(C2CCCCCC2)N1Cc1cccc(Cl)c1Cl" , write its reported IC50.
0.13

Given the molecule "CC1(C)C(=O)N(C2CCCCCC2)N1Cc1ccccc1Cl" , write its reported IC50.
0.092

Given the molecule CC1(C)C(=O)N(C2C3CC4CC(C3)CC2C4)N1Cc1ccccc1 (stereo not drawn) , write its reported IC50.
0.047
